Reference for the values: patent US20210388102A1

Target: T1, cynomolgus monkey ADAM9 (cynoADAM9) on cells (cynomolgus monkey, UniProt Q13443 206-819 (human entry))
T1 construct: also called Cho-K/cynoADAM9 clone 2; Cho-K/cynoADAM9 clone #16
T1 chain: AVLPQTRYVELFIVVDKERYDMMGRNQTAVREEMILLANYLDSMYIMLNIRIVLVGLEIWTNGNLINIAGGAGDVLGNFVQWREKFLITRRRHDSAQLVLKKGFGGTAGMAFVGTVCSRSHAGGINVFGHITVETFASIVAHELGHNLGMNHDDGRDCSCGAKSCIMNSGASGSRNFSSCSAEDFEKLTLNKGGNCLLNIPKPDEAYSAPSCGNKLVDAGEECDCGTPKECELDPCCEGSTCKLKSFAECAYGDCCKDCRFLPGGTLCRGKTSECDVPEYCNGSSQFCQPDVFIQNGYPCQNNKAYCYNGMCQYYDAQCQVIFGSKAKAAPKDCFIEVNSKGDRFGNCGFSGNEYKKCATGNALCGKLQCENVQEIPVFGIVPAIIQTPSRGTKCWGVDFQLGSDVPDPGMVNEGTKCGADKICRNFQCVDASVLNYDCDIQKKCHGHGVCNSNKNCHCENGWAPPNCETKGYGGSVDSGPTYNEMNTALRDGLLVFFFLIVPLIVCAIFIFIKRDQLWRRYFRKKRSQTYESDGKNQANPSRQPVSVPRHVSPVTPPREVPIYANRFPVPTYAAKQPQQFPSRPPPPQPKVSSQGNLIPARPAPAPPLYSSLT
Assay: FACS, EC50 on 300-19 cynoADAM9 cells over EC50 on 300-19 huADAM9 cells
Test Readout: cyno/human (ratio of EC50)
Reply with just the number.

- Binder: "hMAB-A(2C.2)-DGN549 (antibody, human IgG1, kappa, V domains shown, lysine-linked DGN549, sites not given; DGN549-L (compound D2) linked to lysine residues of the antibody, sites not given; average 2.8 mol DGN549/mol antibody) VH: EVQLVESGGGLVKPGGSLRLSCAASGFTFSSYWMHWVRQAPGKGLEWVGEIIPIFGHTNYNEKFKSRFTISLDNSKNTLYLQMGSLRAEDTAVYYCARGGYYYYPRFGWLDYWGQGTTVTVSS VL: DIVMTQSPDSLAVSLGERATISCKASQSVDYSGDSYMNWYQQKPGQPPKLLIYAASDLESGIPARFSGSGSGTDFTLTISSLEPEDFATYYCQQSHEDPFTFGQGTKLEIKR"
  cyno/human (ratio of EC50): 3
- Binder: "hMAB-A(2C.2)-sSPDB-DM4 (antibody, human IgG1, kappa, V domains shown, lysine-linked DM4, sites not given; DM4 linked through sulfo-SPDB to lysine residues of the antibody, sites not given; average 3.2 mol DM4/mol antibody) VH: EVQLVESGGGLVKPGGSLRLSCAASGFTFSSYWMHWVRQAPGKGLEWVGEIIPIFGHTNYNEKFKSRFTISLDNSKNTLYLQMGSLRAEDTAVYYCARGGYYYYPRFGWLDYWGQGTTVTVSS VL: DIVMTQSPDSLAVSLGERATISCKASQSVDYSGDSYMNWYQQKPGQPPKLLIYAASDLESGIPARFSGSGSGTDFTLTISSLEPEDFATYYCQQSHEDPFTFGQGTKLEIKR"
  cyno/human (ratio of EC50): 3
- Binder: "chMAB-A-sSPDB-DM4 (antibody, V domains shown, lysine-linked DM4, sites not given; DM4 linked through sulfo-SPDB to lysine residues of the antibody, sites not given; average 3.4 mol DM4/mol antibody) VH: QVQLQQPGAELVKPGASVKLSCKASGYTFTSYWMHWVKQRPGQGLEWIGEIIPINGHTNYNEKFKSKATLTLDKSSSTAYMQLSSLASEDSAVYYCARGGYYYYGSRDYFDYWGQGTTLTVSS VL: DIVLTQSPASLAVSLGQRATISCKASQSVDYDGDSYMNWYQQIPGQPPKLLIYAASDLESGIPARFSGSGSGTDFTLNIHPVEEEDAATYYCQQSHEDPFTFGGGTKLEIK"
  cyno/human (ratio of EC50): 290
- Binder: "hMAB-A (2C.2) (antibody, human IgG1, kappa, V domains shown, IgG1 kappa; also called MAB-A VH(2C); MAB-A VH(2C.2)) VH: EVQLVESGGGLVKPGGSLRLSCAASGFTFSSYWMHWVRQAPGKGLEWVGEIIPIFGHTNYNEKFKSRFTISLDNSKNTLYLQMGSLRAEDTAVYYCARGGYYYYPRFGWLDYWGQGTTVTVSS VL: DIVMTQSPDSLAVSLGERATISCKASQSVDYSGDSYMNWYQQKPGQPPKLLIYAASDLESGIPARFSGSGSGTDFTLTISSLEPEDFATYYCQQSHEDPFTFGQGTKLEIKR"
  cyno/human (ratio of EC50): 3
- Binder: "hMAB-A(2.2)-sSPDB-DM4 (antibody, human IgG1, kappa, V domains shown, lysine-linked DM4, sites not given; DM4 linked through sulfo-SPDB to lysine residues of the antibody, sites not given; average 3.2 mol DM4/mol antibody, also called huMAB-A(2.2)-sSPDB-DM4) VH: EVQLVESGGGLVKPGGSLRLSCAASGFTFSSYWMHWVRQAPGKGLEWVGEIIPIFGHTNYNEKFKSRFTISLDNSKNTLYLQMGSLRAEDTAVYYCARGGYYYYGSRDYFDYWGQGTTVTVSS VL: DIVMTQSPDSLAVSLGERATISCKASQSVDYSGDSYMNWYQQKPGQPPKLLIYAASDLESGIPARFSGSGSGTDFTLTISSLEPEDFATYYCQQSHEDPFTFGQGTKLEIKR"
  cyno/human (ratio of EC50): 12
- Binder: "chMAB-A-DGN549 (antibody, V domains shown, lysine-linked DGN549, sites not given; DGN549-L (compound D2) linked to lysine residues of the antibody, sites not given; average 2.7 mol DGN549/mol antibody) VH: QVQLQQPGAELVKPGASVKLSCKASGYTFTSYWMHWVKQRPGQGLEWIGEIIPINGHTNYNEKFKSKATLTLDKSSSTAYMQLSSLASEDSAVYYCARGGYYYYGSRDYFDYWGQGTTLTVSS VL: DIVLTQSPASLAVSLGQRATISCKASQSVDYDGDSYMNWYQQIPGQPPKLLIYAASDLESGIPARFSGSGSGTDFTLNIHPVEEEDAATYYCQQSHEDPFTFGGGTKLEIK"
  cyno/human (ratio of EC50): 123

Inquiry: Param item = hMAB-A(2.2)-DGN549 (antibody, human IgG1, kappa, V domains shown, lysine-linked DGN549, sites not given; DGN549-L (compound D2) linked to lysine residues of the antibody, sites not given; average 2.7 mol DGN549/mol antibody) VH: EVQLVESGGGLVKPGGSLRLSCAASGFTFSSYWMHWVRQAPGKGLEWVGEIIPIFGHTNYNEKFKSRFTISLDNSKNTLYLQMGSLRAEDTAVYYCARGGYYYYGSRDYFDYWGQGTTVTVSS VL: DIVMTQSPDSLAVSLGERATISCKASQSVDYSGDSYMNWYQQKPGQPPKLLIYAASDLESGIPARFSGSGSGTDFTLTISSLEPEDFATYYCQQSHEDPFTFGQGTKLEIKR ; retrieve measured cyno/human (ratio of EC50).
Reply text: 14

Inquiry: Requested field: cyno/human (ratio of EC50). Item: chMAB-A (antibody, V domains shown, also called chimeric version of MAB-A; chimeric chMAB-A) VH: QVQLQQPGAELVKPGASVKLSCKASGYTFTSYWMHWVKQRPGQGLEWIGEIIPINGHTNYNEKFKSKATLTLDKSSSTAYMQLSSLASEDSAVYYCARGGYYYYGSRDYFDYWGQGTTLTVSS VL: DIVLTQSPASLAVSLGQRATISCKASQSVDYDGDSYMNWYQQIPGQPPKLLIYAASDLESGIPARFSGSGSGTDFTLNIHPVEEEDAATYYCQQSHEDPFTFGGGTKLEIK
Reply text: 273
